Biological target: T1, Suv3 (human, UniProt Q8IYB8 48-786)
T1 sequence: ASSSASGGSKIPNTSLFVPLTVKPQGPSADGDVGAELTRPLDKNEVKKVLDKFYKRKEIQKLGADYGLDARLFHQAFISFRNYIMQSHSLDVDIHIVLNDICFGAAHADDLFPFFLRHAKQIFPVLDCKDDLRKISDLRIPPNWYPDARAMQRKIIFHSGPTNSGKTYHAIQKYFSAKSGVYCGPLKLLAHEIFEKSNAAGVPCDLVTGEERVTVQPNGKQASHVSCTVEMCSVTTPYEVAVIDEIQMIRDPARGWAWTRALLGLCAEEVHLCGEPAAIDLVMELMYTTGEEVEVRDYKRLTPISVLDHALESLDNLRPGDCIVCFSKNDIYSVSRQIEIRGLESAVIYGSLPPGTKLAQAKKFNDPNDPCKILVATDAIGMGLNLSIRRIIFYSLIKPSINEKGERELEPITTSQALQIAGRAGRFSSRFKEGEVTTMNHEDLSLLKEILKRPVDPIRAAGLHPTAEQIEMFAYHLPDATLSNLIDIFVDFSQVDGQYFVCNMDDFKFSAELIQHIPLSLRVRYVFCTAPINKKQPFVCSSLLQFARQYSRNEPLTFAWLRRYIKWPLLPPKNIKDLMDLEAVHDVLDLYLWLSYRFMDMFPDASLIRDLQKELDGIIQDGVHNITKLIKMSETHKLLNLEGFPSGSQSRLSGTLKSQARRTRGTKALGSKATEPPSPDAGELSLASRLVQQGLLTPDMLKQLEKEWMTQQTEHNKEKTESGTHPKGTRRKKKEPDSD
Assay: fluorescence polarization
measured.endpoint: Kd (nM)
Give bare numbers, in nM.

**Query** # input binder: dsRNA 10-nt 3' overhang (dsRNA) RNA 1: GGUGUGGUGGCAUACGUGCAGACGC RNA 2: GCGUCUGCACGUAUGCCACCACACCAGGAGAGGAG ; wanted: its Kd
**Result** 32.6
